- assay.info: RAM signaling pathway blockade in yeast – S. cerevisiae, Pdr1DBD-CYC8 efflux-inhibited sensitized strain, primary screen (AID 1298);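 also: 0% = DMSO untreated cells without growth and 100% = 10 µM 1-NA-PP1 full growth; higher means more yeast growth rescued from 5-FOA killing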
- reported.conditions: S. cerevisiae cbk1-as DSE1-URA3 strain, 5-FOA growth OD615, 2 d; at 50 µM; stronger effect = higher value
measured.attribute: RAM network inhibition (%)
Give just the number in %; leave the unit off.

*Q* Entry O=C(NCCN1CCOCC1)c1ccc2c(c1)N(Cc1ccccc1)CCS2 needs its RAM network inhibition filled in; supply it.
*A* 6.44

*Q* Entry CCCSc1nc2c(cnn2-c2ccc(C)cc2)c(=O)[nH]1 needs its RAM network inhibition filled in; supply it.
*A* 4.52

*Q* Entry COc1ccc(OC)c(S(=O)(=O)N2CCN(c3c(C)cccc3C)CC2)c1 needs its RAM network inhibition filled in; supply it.
*A* 6.46

*Q* Entry CC(=O)Nc1ccc(N=Cc2ccc[nH]2)cc1 needs its RAM network inhibition filled in; supply it.
*A* 3.68

----------
- assay.info: MRP1 drug-resistance reversers in H69AR cells – cell-based, doxorubicin co-treatment, pilot screen (AID 601)
- reported.conditions: H69AR cells + 2 uM doxorubicin, CellTiter-Glo, 72 h; measured here: viability with 2 uM doxorubicin; at 10 µM; stronger effect = lower value
measured.attribute: viability (%)
Give just the number in %; leave the unit off.

*Q* Entry CCNc1ccc(C(=O)OCC)cc1NC(=O)c1cc(S(=O)(=O)N2CCOCC2)ccc1C needs its viability filled in; supply it.
*A* 90.5

*Q* Entry Cc1noc(/C=C/N(C)C)c1S(=O)(=O)N1CCCC(C(=O)NCCC2=CCCCC2)C1 (centres undefined) needs its viability filled in; supply it.
*A* 88.7

*Q* Entry Cc1cccc(N(CC(=O)N2CCCC2)S(=O)(=O)c2ccccc2)c1C needs its viability filled in; supply it.
*A* 88.8

*Q* Entry O=C(Cc1cccs1)Nc1ccccc1NC(=O)Cc1cccs1 needs its viability filled in; supply it.
*A* 91

----------
- assay.info: S. cerevisiae growth inhibition in restrictive medium, OD615, pilot screen, restrictive growth control, yeast lifespan reduction project (AID 706);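 also: modified DeaD lifespan yeast strain shifted to restrictive glucose medium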
- reported.conditions: OD615, 48 h, at 10 µM, stronger effect = higher value
measured.attribute: growth inhibition (%)
Give just the number in %; leave the unit off.

*Q* Entry Cc1cc(OCC(=O)NCCO)cc(C)c1Cl needs its growth inhibition filled in; supply it.
*A* 0.385

*Q* Entry CC1CCCCC1NC(=O)Cn1ncc2ccccc21 (centres undefined) needs its growth inhibition filled in; supply it.
*A* -9.67

*Q* Entry Cn1cc(S(=O)(=O)N2CCN(Cc3ccccc3)CC2)c(=O)n(C)c1=O needs its growth inhibition filled in; supply it.
*A* -10.5

*Q* Entry C=CCSc1nc(N)c2c(C)c(C)sc2n1 needs its growth inhibition filled in; supply it.
*A* -14

*Q* Entry CC1=C(C)CC2C(=O)N(c3cccc4ccccc34)C(=O)C2C1 (centres undefined) needs its growth inhibition filled in; supply it.
*A* 67.6

*Q* Entry CCCn1c(=O)c(C(=O)NCc2ccccn2)c(O)c2ccccc21 needs its growth inhibition filled in; supply it.
*A* 12.5

*Q* Entry O=C(C1CCN(S(=O)(=O)c2cccc3cccnc23)CC1)N1CCN(C2CCCCC2)CC1 needs its growth inhibition filled in; supply it.
*A* 0.815

*Q* Entry COc1cccc(C(c2sc3ncnn3c2O)N2CCN(C(=O)c3ccco3)CC2)c1 (centres undefined) needs its growth inhibition filled in; supply it.
*A* -5.93

*Q* Entry CCSc1nnc(NC(=O)c2cc3c(s2)CCCC3)s1 needs its growth inhibition filled in; supply it.
*A* -0.425
